- system.tested: thrombin (alpha-thrombin) (Homo sapiens, UniProt P00734;P00734 P00734:315-363,P00734:364-622)
- procedure.text: filter; 10 nM thrombin
Exercise: state measured binding signal for each of the binders provided.
Answers are plain numbers, in % bound.

For every item in the list below, what is its measured binding signal?
1. TCCCATCGAGACGGGGTGTCTTTTGTGGCTTGGGTGGCTGAGGATCGATC (ssDNA) [AMX(398)_E6]
2. TCCCGTCGATTCGGTATGGTTTCGTTTCTGGGTGGCTGAGGATCGATC (ssDNA) [AMX(399)_B11]
3. TCCCACGATCCGGGGTGTCTTTCGTGGGCTGGGTGGCTGAGGATCGATC (ssDNA) [AMX(399)_E1]
4. TCCCGGATCCTCGTGGGTATTGTTGGGTTGGGTGGCTGAGGATCGATC (ssDNA) [AMX(399)_G12]

Response:
29.5
18.7
37.6
40.6
